Test system: biotinyl-Met-oxazolone
Test: self-aminoacylation, catalytic enhancement (BMO) (fold over background); higher = more active; k-Seq, kA / k0A0; sequences stand for … in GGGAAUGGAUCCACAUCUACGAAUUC…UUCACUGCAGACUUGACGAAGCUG
This sample holds only a part of the variants without activity.
QUANTITY_NAME: self-aminoacylation

INPUT_SEQUENCE: AAAUUUGCUAAUAGUCGCCAG [Fam3.1 aminoacylation ribozyme variant]
self-aminoacylation: 1.75

Attention now turns to another entry.
Query (sequence): AUUACCCGCGUCAUCGAGUGA [Fam2.1 aminoacylation ribozyme variant] ; field requested: self-aminoacylation
4.55
